EXPERIMENTAL_TARGET: UniProt:P21462
Sequence (P21462 whole entry): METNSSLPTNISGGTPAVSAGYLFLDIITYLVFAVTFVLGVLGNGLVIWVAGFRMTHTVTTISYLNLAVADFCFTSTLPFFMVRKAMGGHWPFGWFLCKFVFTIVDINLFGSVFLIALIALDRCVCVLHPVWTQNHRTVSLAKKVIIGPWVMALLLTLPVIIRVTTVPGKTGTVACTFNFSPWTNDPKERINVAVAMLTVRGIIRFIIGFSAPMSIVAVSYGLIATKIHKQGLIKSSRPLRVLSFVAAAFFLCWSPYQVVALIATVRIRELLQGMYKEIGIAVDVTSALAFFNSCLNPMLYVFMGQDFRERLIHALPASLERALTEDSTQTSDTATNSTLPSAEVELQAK
PROTOCOL_TEXT: FPR1 cyclic adenosine monophosphate (cAMP) assay
RUN_CONDITIONS: CHO cells overexpressing human FPR1; forskolin 10 µM; inhibition of cAMP production; read-out: hFPR1 cAMP EC50
pEC50: −log10 of the molar value.
OBSERVATION_TYPE: pEC50

Solved cases below.
MOLECULE	EXPERIMENTAL_TARGET	pEC50
COCC(CO)n1ccc(C)c(N2C[C@@H](c3ccc(OC)cc3)[C@H](NC(=O)c3ccc(OC(F)(F)F)cc3)C2=O)c1=O (stereo partly shown) [Example 564]	UniProt:P21462	9.30
COc1cc(F)c([C@@H]2CN(c3c(Cl)ccn(C)c3=O)C(=O)[C@H]2NC(=O)c2ccc(OC(F)F)cc2)c(F)c1	UniProt:P21462	6.89
COc1cc(F)c([C@@H]2CN(c3c(C)ccn(C(F)F)c3=O)C(=O)[C@H]2NC(=O)c2ccc(OC(F)F)cc2)c(F)c1	UniProt:P21462	8.00
COCC(C(=O)N1CC2(COC2)C1)n1cccc(N2C[C@@H](c3c(F)cc(OC)cc3F)[C@H](NC(=O)c3ccc(OC(F)(F)F)cc3)C2=O)c1=O (stereo partly shown)	UniProt:P21462	9.00
COc1cc(F)c([C@@H]2CN(c3cccn(CC(F)F)c3=O)C(=O)[C@H]2NC(=O)c2ccc(C#N)cc2)c(F)c1	UniProt:P21462	6.24

[1] COc1cc(F)c([C@@H]2CN(c3cccn(CCN(C)C)c3=O)C(=O)[C@H]2NC(=O)c2ccc(OC(F)(F)F)cc2)c(F)c1
[2] COc1cc(F)c([C@@H]2CN(c3cccnc3OC3CCOC3)C(=O)[C@H]2NC(=O)c2ccc(OC(F)(F)F)cc2)c(F)c1 (stereo partly shown)
Ask | Which gives the smaller pEC50 number: 1 or 2 ? Give the label under which the chosen entry appears.
Reply | 1
(1: 6.80, 2: 7.08)
